experimentalTarget: HLA-DR DRB1*0802 (human)
methodDescription: competition with 125I probe, purified MHC II
testReadout: IC50 (nM)
Field: numeric (nM). Do not append units.

Quick check: IC50 of DTPYLDITYHFVMQRLPL [Torp. Ach Rec. 195-212] ?
555
